target: Dual specificity tyrosine-phosphorylation-regulated kinase 1A (Rattus norvegicus) (UniProt Q63470); experiment: rat Dyrk1A kinase inhibitors, primary screen, biochemical, single point, plate reader (AID 504441); conditions: ADP-Glo luminescence, NFATc1 peptide, at 12.5 µM, stronger effect = higher value;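 note: plate controls were vehicle with enzyme for no effect and no enzyme for full effect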
Hit rate of the full screen: of about 310,000 compounds, about 1,300 (0.42%) were called active. Shown is part of a subset that was picked to be rich in actives.
propertyName: inhibition (%)

{"columns": ["molecule", "experimentalResult"],
 "data": [
  ["CCc1n[nH]c(=S)n1/N=C/c1c[nH]c2ccc(Br)cc12", 50.2],
  ["O=C1CCN(Cc2ccccc2)CCN1[C@H](CSc1ccccc1)c1ccccc1", 7.38],
  ["COc1ccc(Cl)cc1C=CC=Nc1ccc(S(N)(=O)=O)cc1", -0.507],
  ["O=C(O)C(CCc1ccccn1)c1ccccc1 (stereo not drawn)", 3.61],
  ["CCc1ccc(C(=O)C(C)OC(=O)CN2C(=O)NC3(CCCC3)C2=O)cc1 (stereo not drawn)", 0.139],
  ["O=[N+]([O-])c1ccccc1/C=N/n1c(COc2ccccc2)n[nH]c1=S", -1.54],
  ["COc1ccc(Nc2ccc3ccccc3c2)cc1", -0.0929],
  ["O=C(OC12CC3CC(CC(C3)C1)C2)c1ccc(NCc2cc(O)ccc2O)cc1", 1.7],
  ["OCC(O)C1OCOC(C(O)CO)C1O (stereo not drawn)", -1.78],
  ["O=C1C2C3C=CC(C3)C2C(=O)N1c1ncc([N+](=O)[O-])s1 (stereo not drawn)", -1.64],
  ["Cc1cc(NC(=O)C(C)SCC(=O)Nc2cccc(S(=O)(=O)N3CCCCCC3)c2)no1 (stereo not drawn)", -1.84],
  ["COc1ccc(N=C2C=CC(=O)O2)cc1", 7.98],
  ["CC(C)c1cc(N=O)cc(C(C)C)c1O", 7.15],
  ["CN1C(c2ccc(F)cc2)=CS/C1=C(/C#N)c1nnc2n1-c1ccccc1SC2", -1.31],
  ["NN=C(NN=Cc1ccccc1)c1ccccc1", -4.79],
  ["CSc1ncnc2c1ncn2CC(=O)C1CCC2C3CCC4=CC(=O)CCC4(C)C3CCC12C (stereo not drawn)", 5.41],
  ["O=c1c2ccccc2ncn1CCc1ccncc1", 7.95],
  ["COCCN(C(=O)C(C)N1C(=O)c2ccccc2C1=O)c1c(N)n(CC(C)C)c(=O)[nH]c1=O (stereo not drawn)", -2.22],
  ["O=C1NCC(Nc2ccccc2)C(=O)N1 (stereo not drawn)", -0.332],
  ["N#Cc1cccc(CN2CCC(=O)N([C@H](CO)c3ccccc3)CC2)c1", 50.1],
  ["CCc1cc2c(NC3CCCC3)ncnc2s1", 53.2],
  ["O=C(Nc1ccc(S(=O)(=O)N2CCOCC2)cc1)C1CCN(S(=O)(=O)c2ccc(Cl)cc2)CC1", 7.12],
  ["Cc1cc(/C=N/Nc2ccc([N+](=O)[O-])cn2)c(C)n1-c1cccc(C(=O)O)c1", 50.2]
]}

----------
biological target: Dual specificity tyrosine-phosphorylation-regulated kinase 1A (Rattus norvegicus); assay: rat Dyrk1A kinase inhibitors, primary screen, biochemical, single point, plate reader (AID 504441); conditions: ADP-Glo luminescence, NFATc1 peptide, at 12.5 µM;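 note: plate controls were vehicle with enzyme for no effect and no enzyme for full effect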
About 1,300 (0.42%) of roughly 310,000 compounds were called active. Rule as the data show it: active = inhibition above about 50%; inactive = the rest. The list comes from a sample in which actives are over-represented; it also holds close analogues and randomly drawn compounds.
Outcomes: 1 = active, -1 = inactive

{"columns": ["compound", "measurementTarget", "groupLabel"],
 "data": [
  ["NC(=O)c1ncn([C@@H]2O[C@H](CN=C3NS(=O)(=O)c4ccccc43)[C@@H](O)[C@H]2O)n1", "Dual specificity tyrosine-phosphorylation-regulated kinase 1A (Rattus norvegicus)", -1],
  ["CC(=O)OC1CCC2C3CCC4=C(CC(F)C(=O)C4)C3CCC12C (stereo not given)", "Dual specificity tyrosine-phosphorylation-regulated kinase 1A (Rattus norvegicus)", -1],
  ["O=C(C1CCN(S(=O)(=O)c2ccc(Br)s2)CC1)N1CCN(c2ccccc2)CC1", "Dual specificity tyrosine-phosphorylation-regulated kinase 1A (Rattus norvegicus)", -1],
  ["CCOC(=O)c1cccc(NC(=O)CCc2nnc3ccc(N4CCOCC4)nn23)c1", "Dual specificity tyrosine-phosphorylation-regulated kinase 1A (Rattus norvegicus)", -1],
  ["CCOc1ccc(CCNC(=O)CCc2nnc3ccc(N4CCCC4)nn23)cc1OCC", "Dual specificity tyrosine-phosphorylation-regulated kinase 1A (Rattus norvegicus)", -1],
  ["CN(O)C(=S)c1ccccc1", "Dual specificity tyrosine-phosphorylation-regulated kinase 1A (Rattus norvegicus)", -1],
  ["O=C(Nc1cccc(Br)c1)C1CC(=O)N(C2CCCC2)C1 (stereo not given)", "Dual specificity tyrosine-phosphorylation-regulated kinase 1A (Rattus norvegicus)", -1],
  ["CCN(CC)c1ccc(NC(=O)CCc2nnc3ccc(N4CCCCC4)nn23)c(C)c1", "Dual specificity tyrosine-phosphorylation-regulated kinase 1A (Rattus norvegicus)", 1],
  ["C=C(C)Cn1c(N2CCN(CC)CC2)nc2c1c(=O)[nH]c(=O)n2C", "Dual specificity tyrosine-phosphorylation-regulated kinase 1A (Rattus norvegicus)", 1],
  ["O=C(Nc1ccc2ccccc2c1[N+](=O)[O-])c1ccccc1", "Dual specificity tyrosine-phosphorylation-regulated kinase 1A (Rattus norvegicus)", -1]
]}

----------
target: Dual specificity tyrosine-phosphorylation-regulated kinase 1A (Rattus norvegicus) (UniProt Q63470); assay: rat Dyrk1A kinase inhibitors, primary screen, biochemical, single point, plate reader (AID 504441); settings: ADP-Glo luminescence, NFATc1 peptide, at 12.5 µM, stronger effect = higher value;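 note: plate controls were vehicle with enzyme for no effect and no enzyme for full effect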
The whole screen tested about 310,000 compounds, of which about 1,300 (0.42%) were called active. Shown is part of a subset that was picked to be rich in actives.
# inhibition annotations

{"columns": ["compound", "inhibition (%)"],
 "data": [
  ["CN(CCc1ccccc1)C(=O)c1cccc(NC(=O)Cc2cccc(NC(=O)C3CCCN(C(=O)C4CCC4)C3)c2)c1 (configuration not stated)", -0.693],
  ["Nc1nc(SCc2ccc([N+](=O)[O-])cc2)c2ncn(C3OC(CO)C(O)C3O)c2n1 (configuration not stated)", 56.9],
  ["COc1ccc(C(CNC(=O)c2cccc(S(=O)(=O)Nc3ccc(Br)cc3)c2)N(C)C)cc1 (configuration not stated)", -0.345],
  ["COc1cccc(C=CC(=O)C=CC=Cc2ccccc2)c1", -2.98],
  ["COc1ccc(CNCCCNCc2ccc(OC)c(OC)c2)cc1OC", -3.55],
  ["CC(=O)Oc1ccc2c(c1)C(=O)c1ccccc1C2=O", 53.6],
  ["O=C(OCCOc1ccccc1Cl)c1cc(S(=O)(=O)N2CCCCC2)ccc1N1CCOCC1", -7.28],
  ["CN1CCN(/N=C/c2ccc(-c3ccc([N+](=O)[O-])cc3)o2)CC1", 4.45],
  ["CCCN(CC(=O)Nc1ccccc1C)C(=O)c1ccc(OCC(=O)N2CCOCC2)c(OCC)c1", -7.61],
  ["NS(=O)(=O)c1ccc(-c2ccc(/C=C3\\SC(=O)NC3=O)o2)cc1", 87.9],
  ["COC1=CC(=O)OC(C)(c2ccccc2)C1 (configuration not stated)", 1.06],
  ["Oc1cccc(CCc2ccccn2)c1", 7.91],
  ["CC(=O)Oc1cccc(C(=O)Nc2ccccc2NC(=O)c2cccc(OC(C)=O)c2)c1", -0.37],
  ["c1coc(CNc2ncnc3ccccc23)c1", 6.44],
  ["Cc1[nH]c2ccccc2c1CCN(Cc1cccs1)C(=S)NC(C)(C)C", -4.25],
  ["COc1ccc2[nH]c(C)c(CCN(Cc3cccs3)C(=S)Nc3ccccc3OC)c2c1", 57.4],
  ["NC(=O)C1CCN(C(=O)c2cc(S(=O)(=O)N3CCN(c4ccccc4)CC3)ccc2Cl)CC1", 8.45],
  ["Cc1cc(OCCCC(=O)Nc2cc(S(=O)(=O)N3CCOCC3)ccc2N2CCOCC2)ccc1Cl", 1.11],
  ["O=C1/C(=C\\c2ccc(O)cc2)CCC1CNc1ccc(Cl)cc1 (configuration not stated)", 2.38],
  ["Cc1c(NS(=O)(=O)c2cccc(C(=O)Nc3ccc(SC(F)F)cc3)c2)c(=O)n(-c2ccccc2)n1C", -4],
  ["CC(=O)Oc1ccc2c(C)c(CC(C)O)c(=O)oc2c1 (configuration not stated)", 2.53],
  ["CC(C)Sc1nc(N)nc2c1ncn2C1OC(CO)C(O)C1O (configuration not stated)", -4.63]
]}

----------
biological target: Dual specificity tyrosine-phosphorylation-regulated kinase 1A (Rattus norvegicus); experiment: rat Dyrk1A kinase inhibitors, primary screen, biochemical, single point, plate reader (AID 504441); conditions: ADP-Glo luminescence, NFATc1 peptide, at 12.5 µM;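 note: plate controls were vehicle with enzyme for no effect and no enzyme for full effect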
The campaign covered roughly 310,000 compounds. About 1,300 (0.42%) were called active. No stated cut-off is given here; in the data, active means inhibition above about 50%; inactive means the rest. The full list was thinned out, with actives kept by preference.
Outcomes: active, inactive

{"columns": ["chemSmiles", "groupLabel"],
 "data": [
  ["CCOC(=O)c1ccccc1OC(=O)Oc1ccccc1C(=O)OCC", "inactive"],
  ["C=CC(=O)Nc1ccc(Nc2ccnc(Nc3ccc(N4CCN(C)CC4)cc3)n2)cc1", "inactive"],
  ["CC(C)C(=O)Nc1cccc(C(=O)Nc2ccc3c(c2)OCO3)c1", "inactive"],
  ["CC(=O)Nc1cccc(C(=O)OCC(=O)c2ccc3c(c2)OCO3)c1", "active"],
  ["COc1cc(/C=C/c2ccc(/C=C/c3cc(OC)c(OC)c(OC)c3)cc2)cc(OC)c1OC", "inactive"]
]}
